Molecular target: tooth pellicle (thin film derived from salivary glycoproteins, formed in a human mouth) (human)
Test: ELISA, 20 uM biotinylated peptide on pellicle-coated bovine enamel, streptavidin-HRP, normalized to DenP03; no-peptide control -0.001
Where no end group is shown, it is not given here. The star is where a group is joined. Biotin = O=C1N[C@H]2[C@H](CS[C@H]2CCCCC(=O)*)N1
READOUT: O.D.450 (normalized)

| BINDER | NUMERIC_RESULT |
| --- | --- |
| SSRPELDHDSRHYMNGLQRKVTK(Biotin) [DenP15-A] | 0.46 |
| SSRPEFPYYNDNPPNPERHTLRK(Biotin) [DenP7-A] | 0.356 |
| SSRPYLLPKDQTTAPQVTPIVQHKK(Biotin) [DenP5-A] | 0.462 |
